- measured target: IDO1 (Homo sapiens)
- protocol summary: Kynurenine assay by HPLC analysis, IDO1
- Assay type: biochemical
- Set-up: made in house; host or cells: Escherichia coli M15 (pQE30 vector with pREP4 plasmid)
- measurement context: HPLC; 20 µM
observable: inhibition at 20 µM (%)

> print(dat)
                                   compound      measured.target  result.unit  measured.result
1   NC(=O)c1n[nH]nc1-c1ccccc1 [Compound 3a]  IDO1 (Homo sapiens)            %               79
2  NS(=O)(=O)NCCNC(=O)c1n[nH]nc1-c1ccc(F)c(F)c1 [Compound 4k]  IDO1 (Homo sapiens)            %               86
3  CCOC(=O)c1n[nH]nc1-c1ccccc1 [Compound 2a]  IDO1 (Homo sapiens)            %               76
4  NS(=O)(=O)NCCNC(=O)c1n[nH]nc1-c1ccc(Cl)c(Cl)c1 [Compound 4l]  IDO1 (Homo sapiens)            %               93

====

- measured target: IDO1 (Homo sapiens, UniProt P14902)
- Sequence (P14902 whole entry): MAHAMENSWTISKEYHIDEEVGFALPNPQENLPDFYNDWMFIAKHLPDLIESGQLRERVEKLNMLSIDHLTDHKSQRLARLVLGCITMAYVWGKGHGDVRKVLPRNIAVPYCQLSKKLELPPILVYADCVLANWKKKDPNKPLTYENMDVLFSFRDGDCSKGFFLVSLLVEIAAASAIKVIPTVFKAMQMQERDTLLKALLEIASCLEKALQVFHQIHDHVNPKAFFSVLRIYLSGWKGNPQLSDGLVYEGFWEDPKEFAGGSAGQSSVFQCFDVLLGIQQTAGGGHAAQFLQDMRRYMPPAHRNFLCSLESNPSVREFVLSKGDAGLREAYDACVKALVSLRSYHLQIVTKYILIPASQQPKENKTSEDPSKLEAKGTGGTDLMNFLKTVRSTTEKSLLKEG
- protocol summary: Circular dichroism analysis of IDO1 enzyme
- Design: made in house; host or cells: Escherichia coli M15 (pQE30 vector with pREP4 plasmid)
- measurement context: compound 1 µM
observable: % of Secondary structural elements, Turn (%)

> print(dat)
                                 mol.smiles                                observable  measured.result
1  O=C(N/C(Cc1ccc(O)cc1)=N\O)c1n[nH]nc1-c1ccc(F)c(F)c1  % of Secondary structural elements, Turn             31.8
2           NC(=O)c1n[nH]nc1-c1ccc(F)c(F)c1  % of Secondary structural elements, Turn             34.5
3         CCOC(=O)c1n[nH]nc1-c1ccc(F)c(F)c1  % of Secondary structural elements, Turn             36.3
4  NS(=O)(=O)NCCNC(=O)c1n[nH]nc1-c1ccc(F)c(F)c1  % of Secondary structural elements, Turn             38.1

====

- measured target: TDO enzyme (Homo sapiens, UniProt P48775)
- Construct: 6xHis (N); made in house; host or cells: Escherichia coli BL21 (DE3) (pET 28a vector)
- Sequence (P48775 whole entry): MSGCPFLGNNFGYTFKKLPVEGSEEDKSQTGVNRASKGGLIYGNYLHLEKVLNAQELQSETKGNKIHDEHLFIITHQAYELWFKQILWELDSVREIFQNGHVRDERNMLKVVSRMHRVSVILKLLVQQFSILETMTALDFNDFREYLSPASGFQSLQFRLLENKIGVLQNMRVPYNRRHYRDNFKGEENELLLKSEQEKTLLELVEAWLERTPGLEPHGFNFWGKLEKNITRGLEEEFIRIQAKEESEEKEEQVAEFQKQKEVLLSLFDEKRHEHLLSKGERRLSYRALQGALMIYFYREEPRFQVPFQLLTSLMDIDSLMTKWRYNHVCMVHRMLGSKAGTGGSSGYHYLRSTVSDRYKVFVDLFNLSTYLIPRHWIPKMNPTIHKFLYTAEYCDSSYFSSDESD
- protocol summary: HPLC based TDO inhibition assay
- Type: biochemical
- measurement context: 32 nM
- Procedure: HPLC based IDO1, and TDO inhibition assays were performed according to the earlier reported procedure[19],[27]–[30]. […] The area under the curve at 365 nm chromatogram corresponding to the kynurenine formation was recorded, and % of inhibition was calculated using standard curve prepared with pure kynurenine (from Sigma) under similar experimental conditions.
observable: % Of inhibition for TDO enzyme (%)

> print(dat)
                                 mol.smiles  measured.result
1           O=C(O)c1n[nH]nc1-c1ccc(F)c(F)c1                6
2  O=C(N/C(Cc1ccc(O)cc1)=N\O)c1n[nH]nc1-c1ccc(F)c(F)c1               15
3         NC(=O)c1n[nH]nc1-c1ccc(Cl)c(Cl)c1               33
4         CCOC(=O)c1n[nH]nc1-c1ccc(F)c(F)c1               34

A = NC(=O)c1n[nH]nc1-c1ccc(F)c(F)c1
B = CCOC(=O)c1n[nH]nc1-c1ccc(Cl)c(Cl)c1
Which record would sort first by descending % Of inhibition for TDO enzyme, A or B ? Respond using the label that marks the chosen record.
A

====

- measured target: IDO1 (Homo sapiens, UniProt P14902)
- protocol summary: Circular dichroism analysis of IDO1 enzyme
- Design: made in house; host or cells: Escherichia coli M15 (pQE30 vector with pREP4 plasmid)
- measurement context: compound 2 µM
observable: % of Secondary structural elements, Helix (%)

> print(dat)
                                   compound  measured.result
1  O=C(N/C(Cc1ccc(O)cc1)=N\O)c1n[nH]nc1-c1ccc(F)c(F)c1 [Compound 4i]             29.8
2  NS(=O)(=O)NCCNC(=O)c1n[nH]nc1-c1ccc(F)c(F)c1 [Compound 4k]             23.8
3  CCOC(=O)c1n[nH]nc1-c1ccc(F)c(F)c1 [Compound 2i]             30.5
4  NC(=O)c1n[nH]nc1-c1ccc(F)c(F)c1 [Compound 3i]             28.5

====

- measured target: IDO1 (Homo sapiens)
- protocol summary: Circular dichroism analysis of IDO1 enzyme
- Set-up: made in house; host or cells: Escherichia coli M15 (pQE30 vector with pREP4 plasmid)
- measurement context: compound 2 µM
- Method: The Circular Dichroism (CD) spectra of the IDO1 enzyme in the absence or presence of compounds were recorded with a Jasco-810-spectropolarimeter according to the reported procedure[37],[38]. […] Spectra were recorded by varying the concentration of the compound (250 nM to 4 µM) using a 1 mL quartz cuvette of 1 cm path length with a Jasco J-1500 spectropolarimeter at 17 °C. […] The % of the secondary structures of the IDO1 enzyme was analyzed using the inbuilt software of the instrument.
observable: % of Secondary structural elements, Turn (%)

> print(dat)
                                 mol.smiles      measured.target  result.unit  measured.result
1         CCOC(=O)c1n[nH]nc1-c1ccc(F)c(F)c1  IDO1 (Homo sapiens)            %             35.7
2  NS(=O)(=O)NCCNC(=O)c1n[nH]nc1-c1ccc(F)c(F)c1  IDO1 (Homo sapiens)            %             30.2
3           NC(=O)c1n[nH]nc1-c1ccc(F)c(F)c1  IDO1 (Homo sapiens)            %             30.7
4  O=C(N/C(Cc1ccc(O)cc1)=N\O)c1n[nH]nc1-c1ccc(F)c(F)c1  IDO1 (Homo sapiens)            %             27.6

====

- measured target: IDO1 (Homo sapiens)
- protocol summary: Circular dichroism analysis of IDO1 enzyme
- Design: made in house; host or cells: Escherichia coli M15 (pQE30 vector with pREP4 plasmid)
- measurement context: compound 4 µM
observable: % of Secondary structural elements, Random (%)

Study these solved cases before continuing.
> print(dat)
                                   molecule  measured.result
1  O=C(N/C(Cc1ccc(O)cc1)=N\O)c1n[nH]nc1-c1ccc(F)c(F)c1 [Compound 4i]             38.8
2  NS(=O)(=O)NCCNC(=O)c1n[nH]nc1-c1ccc(F)c(F)c1 [Compound 4k]             36.4

I = CCOC(=O)c1n[nH]nc1-c1ccc(F)c(F)c1 [Compound 2i]
II = NC(=O)c1n[nH]nc1-c1ccc(F)c(F)c1 [Compound 3i]
Could you check which of I and II has a smaller value for % of Secondary structural elements, Random? Respond using the label that marks the chosen record.
I

====

- measured target: TDO enzyme (Homo sapiens, UniProt P48775)
- Construct: 6xHis (N); made in house; host or cells: Escherichia coli BL21 (DE3) (pET 28a vector)
- protocol summary: HPLC based TDO inhibition assay
- Type: biochemical
- measurement context: 20 µM
observable: % Of inhibition for TDO enzyme (%)

> print(dat)
                          mol.smiles                      observable  measured.result
1  NC(=O)c1n[nH]nc1-c1ccc(Cl)c(Cl)c1  % Of inhibition for TDO enzyme               51

1 = O=C(N/C(Cc1ccc(O)cc1)=N\O)c1n[nH]nc1-c1ccc(F)c(F)c1
2 = NC(=O)c1n[nH]nc1-c1ccc(F)c(F)c1
Could you check which of 1 and 2 has a smaller value for % Of inhibition for TDO enzyme? Respond using the label that marks the chosen record.
2
(2: 37%, 1: 66%)

====

- measured target: purified human TDO enzyme (Homo sapiens, UniProt P48775)
- Construct: 6xHis (N); made in house; host or cells: Escherichia coli BL21 (DE3) (pET 28a vector)
- Sequence (P48775 whole entry): as above
- protocol summary: TDO inhibition assay by the spectrometric method
- Format: biochemical
- measurement context: spectrophotometric; 100 µM
observable: inhibition at 100 µM (%)

> print(dat)
                  mol.smiles  result.unit  measured.result
1  NC(=O)c1n[nH]nc1-c1ccccc1            %               42

I = c1ccc(-c2nn[nH]c2-c2ccccc2)cc1
II = NS(=O)(=O)NCCNC(=O)c1n[nH]nc1-c1ccc(Cl)c(Cl)c1
Which record would sort first by descending inhibition at 100 µM, I or II ? Respond using the label that marks the chosen record.
I
(I: 59%, II: 26%)
